Each item that follows carries a reported Percent Effect.
assay: In vitro enzyme assay to detect hydrolysis of chlorophenol red-beta-D-[…] directly proportional to the number of Toxoplasma stably expressing beta-galactosidase; assay type: functional, organism-based, Toxoplasma gondii; design: scale not given: in the data most compounds retested in dose-response had high values; conditions: 50 µM
Hit rate of the full screen: of about 85,000 compounds, about 440 (0.52%) showed an effect of 50% or more. The full list was thinned out, with strong results kept by preference.
State just the number; it will be interpreted in %.

Illustrative cases are given below, each with its answer.
molecule | measurement-unit | measured-result
CCN(CCN(C)C)C(=O)c1cn(CCN)nn1 | % | 2.797
Cc1cnccc1NCCNC(=O)[C@H]1CCC[C@H](O)C1 | % | -11.82
CN1CC(NC(=O)CCC(=O)c2cccs2)CCC1=O (centres undefined) | % | -1.402

q: Query (molecule): CC(C)(C)CC1CCCN1S(N)(=O)=O (centres undefined) ; field requested: Percent Effect
a: -15.84

q: Query (molecule): CC(C)C(CC(=O)NCC(N)=O)c1ccccc1 (centres undefined) ; field requested: Percent Effect
a: 0.4392

q: Query (molecule): O=C(NCc1cccnc1)c1cn2cccnc2n1 ; field requested: Percent Effect
a: -2.314

q: Query (molecule): CCOc1cccc(OCCNCCN)c1 ; field requested: Percent Effect
a: 3.655

q: Query (molecule): CCCC(=O)N1CCN(C(=O)NCC)CC1 ; field requested: Percent Effect
a: 54.38

q: Query (molecule): O=C(Nc1ccc(Br)cn1)C1CCCNC1 (centres undefined) ; field requested: Percent Effect
a: 56.99

q: Query (molecule): CC(C)NC(C1CCNCC1)[C@H]1C[C@H](O)C1 (some centres undefined) ; field requested: Percent Effect
a: 23.17

q: Query (molecule): CCN1CC(C(=O)Nc2ccc(Br)cn2)CC1=O (centres undefined) ; field requested: Percent Effect
a: -17.13

q: Query (molecule): c1ccc(N2CCCC2)nc1 ; field requested: Percent Effect
a: -4.186

q: Query (molecule): CCCNC(=O)N1CCN(CCC)CC1 ; field requested: Percent Effect
a: -47.68

q: Query (molecule): Cc1scc(-c2nnc(SCC(N)=O)n2C)c1C ; field requested: Percent Effect
a: -29.64
